target_under_test: T1, PUF4 RNA-binding domain (Saccharomyces cerevisiae, UniProt P25339 537-888)
T1 sequence: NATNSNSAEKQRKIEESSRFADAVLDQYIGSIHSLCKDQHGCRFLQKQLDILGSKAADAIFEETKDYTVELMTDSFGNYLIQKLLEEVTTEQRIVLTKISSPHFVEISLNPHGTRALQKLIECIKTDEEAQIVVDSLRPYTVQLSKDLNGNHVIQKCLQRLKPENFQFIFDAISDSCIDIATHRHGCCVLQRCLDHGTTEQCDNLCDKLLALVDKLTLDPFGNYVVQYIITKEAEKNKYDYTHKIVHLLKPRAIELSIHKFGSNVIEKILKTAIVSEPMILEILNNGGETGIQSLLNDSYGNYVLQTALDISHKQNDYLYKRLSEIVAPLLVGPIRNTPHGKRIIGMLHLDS
assay_notes: Mg; RNA-MaP; 20 mM Na-HEPES pH 7.4, 30 mM KOAc, 0.75 mM MgCl2, 0.1% Tween-20, 5% glycerol, 0.1 mg/mL BSA, 2 mM DTT; 25 C; 0.0125-409.6 nM protein
test_conditions: tags: N-His6-TEV cleaved; C-SNAP kept, Cy3B-labelled; label: tethered on chip by stalled RNA polymerase
The following binders are listed with their measured Kd values.

[
  {
    "binder": "Ic_S2_P4E.1_K4.1_C4.1_H4.1_A4.1_[T5C]_[A6C]_F4.1_[A9C]_T4.1 (ssRNA) RNA: UUUGAUUAAUAUGAUAUCGUUCUUUCUUGUACCUUCUUCUUUCUCGAUAUCAUAUUAAUCUUU",
    "operator": "=",
    "Kd, nM": 21.5
  },
  {
    "binder": "Ic_S2_P3E.1_K3.1_C3.1_H3.1_A3.1_[T5G]_[A6T]_F3.1_[T7C]_T3.1 (ssRNA) RNA: UUUGAUUAAUAUGAUAUCGUUCUUUCUUGUAGUCAUUCUUUCUCGAUAUCAUAUUAAUCUUU",
    "operator": "=",
    "Kd, nM": 751
  },
  {
    "binder": "Id_ii_S2_P4E.3_K4.2_C4.2_[T-1A]_H4.2_A4.1_F4.1_T4.2 (ssRNA) RNA: UUUGAUUAAUAUGAUAUCGUUCUUUCUCAUAUAUAUUAGUUUCUUUCUCGAUAUCAUAUUAAUCUUU",
    "operator": "=",
    "Kd, nM": 8.89
  },
  {
    "binder": "UCUCUUUGUACUUCUCUCUU (ssRNA) [Ic_S1_P3E.1_K3.1_C3.1_H3.1_A3.1_[T5C]_[A6T]_F3.1_[A8C]_T3.1]",
    "operator": "=",
    "Kd, nM": 190
  },
  {
    "binder": "Ic_S2_P3E.1_K3.1_C3.1_H3.1_A3.1_[A6G]_F3.1_[A8G]_T3.1 (ssRNA) RNA: UUUGAUUAAUAUGAUAUCGUUCUUUCUUGUAUGUGUUCUUUCUCGAUAUCAUAUUAAUCUUU",
    "operator": "=",
    "Kd, nM": 44.9
  },
  {
    "binder": "Ie_S2_P4E.1_K4.1_C4.1_H4.1_A4.1_[+5TCC]_F4.1_T4.1 (ssRNA) RNA: UUUGAUUAAUAUGAUAUCGUUCUUUCUUGUAUUCCAUUAUUCUUUCUCGAUAUCAUAUUAAUCUUU",
    "operator": "=",
    "Kd, nM": 46.4
  },
  {
    "binder": "Id_ii_S2_P5E.4_K5.3_C5.2_[C-2T]_H5.3_A5.1_F5.1_T5.2_[A12C] (ssRNA) RNA: UUUGAUUAAUAUGAUAUCGUUCUUUCUUUACACUUAUUAUCUUCUUUCUCGAUAUCAUAUUAAUCUUU",
    "operator": "=",
    "Kd, nM": 1890
  },
  {
    "binder": "ACAAACAUUAUAUAUUACAACAAAC (ssRNA) [Id_ii_S3_P4E.3_K4.2_C4.2_[C-2A]_H4.2_A4.1_F4.1_T4.2_[G10C]_[T11A]]",
    "operator": "=",
    "Kd, nM": 27.7
  },
  {
    "binder": "ACAAACCGUAUAUUCACAAAC (ssRNA) [Ib_S3_P4E.1_K4.1_C4.1_H4.1_[T1C]_A4.1_F4.1_[A9C]_T4.1]",
    "operator": ">",
    "Kd, nM": 2300
  },
  {
    "binder": "Ib_S4_P5E.1_K5.1_C5.1_H5.1_[A4C]_A5.1_[A7C]_F5.1_T5.1 (ssRNA) RNA: UUUGACAACUGAUCGUUCUUUCUUGUCUUCUUAUUCUUUCUCGAUCAGUUGUCUUU",
    "operator": "=",
    "Kd, nM": 83.8
  },
  {
    "binder": "UCUCUUUGUAAUUGUUCUCUU (ssRNA) [Ic_S1_P4E.1_K4.1_C4.1_H4.1_A4.1_[T5A]_[A6T]_F4.1_[T8G]_[A9T]_T4.1]",
    "operator": "=",
    "Kd, nM": 98.4
  },
  {
    "binder": "Id_ii_S4_P4E.4_K4.3_C4.2_[T-1G]_H4.3_A4.1_F4.1_T4.2_[G10C]_[T11C] (ssRNA) RNA: UUUGACAACUGAUCGUUCUUUCUCGACACUAUUACCUUCUUUCUCGAUCAGUUGUCUUU",
    "operator": ">",
    "Kd, nM": 2300
  },
  {
    "binder": "Id_ii_S2_P4E.2_K4.1_C4.2_[C-2A]_[T-1A]_H4.1_A4.1_F4.1_T4.2_[G10C]_[T11C] (ssRNA) RNA: UUUGAUUAAUAUGAUAUCGUUCUUUCUAAUGUAUAUUACCUUCUUUCUCGAUAUCAUAUUAAUCUUU",
    "operator": "=",
    "Kd, nM": 2.15
  },
  {
    "binder": "Id_ii_S2_P5E.4_K5.3_C5.2_[C-2T]_[T-1C]_H5.3_A5.1_F5.1_T5.2_[A12C] (ssRNA) RNA: UUUGAUUAAUAUGAUAUCGUUCUUUCUUCACACUUAUUAUCUUCUUUCUCGAUAUCAUAUUAAUCUUU",
    "operator": ">",
    "Kd, nM": 2300
  },
  {
    "binder": "ACAAACGGACACUAUAAAACAAAC (ssRNA) [Id_ii_S3_P3E.4_K3.3_C3.2_[C-2G]_[T-1G]_H3.3_A3.1_F3.1_T3.2_[T9A]]",
    "operator": ">",
    "Kd, nM": 2300
  },
  {
    "binder": "ACAAACUAUAUUUAACAAAC (ssRNA) [Ib_S3_P3E.1_K3.1_C3.1_H3.1_[G2A]_A3.1_[A6T]_F3.1_T3.1]",
    "operator": ">",
    "Kd, nM": 2300
  },
  {
    "binder": "UCUCUUUGUAGUACAUCUCUU (ssRNA) [Ic_S1_P4E.1_K4.1_C4.1_H4.1_A4.1_[T5G]_[A6T]_[T7A]_F4.1_[T8C]_T4.1]",
    "operator": "=",
    "Kd, nM": 1720
  },
  {
    "binder": "UCUCUUUCUUGUAAUAUUAUUUCUCUU (ssRNA) [Id_iii_S1_P5E.8_K5.4_C5.3_H5.1_A5.2_F5.1_T5.2_[A12T]]",
    "operator": "=",
    "Kd, nM": 7.29
  },
  {
    "binder": "UCUCUUGCUGUAUUAUUAAUUCUCUU (ssRNA) [Id_ii_S1_P5E.2_K5.1_C5.2_[C-2G]_[T-1C]_H5.1_A5.1_F5.1_T5.2_[T11A]_[A12T]]",
    "operator": "=",
    "Kd, nM": 21.6
  },
  {
    "binder": "Ib_S4_P4E.1_K4.1_C4.1_H4.1_[A4C]_A4.1_F4.1_[T8A]_T4.1 (ssRNA) RNA: UUUGACAACUGAUCGUUCUUUCUUGUCUAUAAUUCUUUCUCGAUCAGUUGUCUUU",
    "operator": "=",
    "Kd, nM": 458
  },
  {
    "binder": "Id_ii_S2_P5E.3_K5.2_C5.2_[C-2T]_[T-1A]_H5.2_A5.1_F5.1_T5.2_[T11G]_[A12C] (ssRNA) RNA: UUUGAUUAAUAUGAUAUCGUUCUUUCUUAUAUAUUAUUAGCUUCUUUCUCGAUAUCAUAUUAAUCUUU",
    "operator": "=",
    "Kd, nM": 13.9
  },
  {
    "binder": "UCUCUUUGUAUAUCAGUCUCUU (ssRNA) [Ic_S1_P5E.1_K5.1_C5.1_H5.1_A5.1_[T6A]_[A7T]_F5.1_[T8C]_[T9A]_[A10G]_T5.1]",
    "operator": "=",
    "Kd, nM": 4.58
  },
  {
    "binder": "Id_ii_S2_P3E.4_K3.3_C3.2_H3.3_A3.1_F3.1_T3.2_[T9A] (ssRNA) RNA: UUUGAUUAAUAUGAUAUCGUUCUUUCUCUACACUAUAAAUUCUUUCUCGAUAUCAUAUUAAUCUUU",
    "operator": "=",
    "Kd, nM": 454
  },
  {
    "binder": "UCUCUUGUACACUAUAUCUCUCUU (ssRNA) [Id_ii_S1_P3E.4_K3.3_C3.2_[C-2G]_H3.3_A3.1_F3.1_T3.2_[A10C]]",
    "operator": "=",
    "Kd, nM": 0.836
  }
]
